Target: NR1/NR2B (Rattus norvegicus, UniProt P35439+Q00960)
Sequence (Q00960 27-1482, other chains not shown): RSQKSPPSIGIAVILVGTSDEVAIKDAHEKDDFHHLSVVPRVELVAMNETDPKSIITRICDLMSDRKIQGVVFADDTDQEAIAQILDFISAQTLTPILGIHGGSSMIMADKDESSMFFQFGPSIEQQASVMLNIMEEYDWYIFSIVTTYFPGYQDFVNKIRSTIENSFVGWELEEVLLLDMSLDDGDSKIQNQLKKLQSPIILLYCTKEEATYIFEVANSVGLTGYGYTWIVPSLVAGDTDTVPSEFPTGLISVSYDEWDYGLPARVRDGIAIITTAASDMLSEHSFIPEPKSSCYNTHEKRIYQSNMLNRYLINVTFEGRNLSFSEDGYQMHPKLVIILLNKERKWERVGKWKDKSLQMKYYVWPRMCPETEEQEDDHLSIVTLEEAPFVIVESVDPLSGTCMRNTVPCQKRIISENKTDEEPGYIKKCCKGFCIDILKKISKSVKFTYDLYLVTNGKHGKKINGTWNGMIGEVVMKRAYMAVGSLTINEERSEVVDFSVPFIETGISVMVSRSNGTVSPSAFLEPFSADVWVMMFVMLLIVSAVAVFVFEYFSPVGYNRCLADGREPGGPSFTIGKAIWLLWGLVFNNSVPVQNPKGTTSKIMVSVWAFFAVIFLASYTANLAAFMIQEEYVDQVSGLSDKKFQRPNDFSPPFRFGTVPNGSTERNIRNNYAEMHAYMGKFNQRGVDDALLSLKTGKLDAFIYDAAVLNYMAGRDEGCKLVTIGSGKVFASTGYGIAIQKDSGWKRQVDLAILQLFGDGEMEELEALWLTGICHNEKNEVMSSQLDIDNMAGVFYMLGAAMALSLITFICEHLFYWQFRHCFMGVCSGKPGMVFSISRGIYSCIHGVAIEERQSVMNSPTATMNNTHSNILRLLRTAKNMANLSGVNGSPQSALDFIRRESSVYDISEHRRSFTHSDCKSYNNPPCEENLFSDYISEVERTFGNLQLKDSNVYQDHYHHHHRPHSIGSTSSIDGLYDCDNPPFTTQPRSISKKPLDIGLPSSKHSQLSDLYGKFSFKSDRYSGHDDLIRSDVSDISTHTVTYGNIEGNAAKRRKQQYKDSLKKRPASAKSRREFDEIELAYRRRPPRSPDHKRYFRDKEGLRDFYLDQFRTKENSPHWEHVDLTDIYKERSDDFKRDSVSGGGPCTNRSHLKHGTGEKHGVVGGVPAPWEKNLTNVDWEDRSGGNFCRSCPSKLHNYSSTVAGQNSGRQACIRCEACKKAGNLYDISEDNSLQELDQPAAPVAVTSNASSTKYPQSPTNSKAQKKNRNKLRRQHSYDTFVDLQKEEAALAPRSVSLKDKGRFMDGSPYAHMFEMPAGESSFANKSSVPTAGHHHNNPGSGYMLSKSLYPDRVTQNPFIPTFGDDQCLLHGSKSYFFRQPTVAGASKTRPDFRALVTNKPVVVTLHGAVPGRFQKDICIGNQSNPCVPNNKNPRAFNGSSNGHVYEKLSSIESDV
Experiment: Two electrode voltage clamp, Xenopus oocytes expressing recombinant NR1/NR2B
Assay type: cell-based
Details: at 100 μM; read-out: 2B percent effect at the maximum tested concentration
Friendly reminder: remaining activity at 100 µM below 90% is True, at or above is False.

> print(dat)
                                entry.smiles  assigned.label
 1  Cn1c(=O)oc2ccc(C(=O)Nc3cccc4ccccc34)cc21            True
 2  O=C(Nc1cccc2ccccc12)c1ccc(OC(=O)N2CCCCC2)cc1           False
 3    O=C(O)c1ccc(C(=O)Nc2cccc3cc[nH]c23)cc1           False
 4  CCN(CC)C(=O)c1ccc(C(=O)Nc2cccc3cc[nH]c23)cc1            True
 5  CCN(CC)C(=S)Oc1ccc(C(=O)Nc2ccc(Cl)c3ccccc23)cc1            True
 6  CCN(CC)C(=O)Oc1cccc(C(=O)Nc2cccc3ccccc23)c1           False
 7  CCC(CC)C(=O)Oc1ccc(C(=O)Nc2cccc3ccccc23)cc1           False
 8  CC(C)N(C(=O)Oc1ccc(C(=O)Oc2cccc3c(N)cccc23)cc1)C(C)C           False
 9  O=C(Nc1cccc2ccccc12)c1ccc(Oc2nc3ccccc3s2)cc1            True
10  CCN(CC)C(=S)Oc1ccc(C(=O)Nc2cccc3cc[nH]c23)cc1            True

* * *

Below, each entry is listed with its recorded remaining activity at 100 µM.
Target: NR1/NR2C (Rattus norvegicus, UniProt P35439+Q00961)
Sequence (Q00961 20-1237, other chains not shown): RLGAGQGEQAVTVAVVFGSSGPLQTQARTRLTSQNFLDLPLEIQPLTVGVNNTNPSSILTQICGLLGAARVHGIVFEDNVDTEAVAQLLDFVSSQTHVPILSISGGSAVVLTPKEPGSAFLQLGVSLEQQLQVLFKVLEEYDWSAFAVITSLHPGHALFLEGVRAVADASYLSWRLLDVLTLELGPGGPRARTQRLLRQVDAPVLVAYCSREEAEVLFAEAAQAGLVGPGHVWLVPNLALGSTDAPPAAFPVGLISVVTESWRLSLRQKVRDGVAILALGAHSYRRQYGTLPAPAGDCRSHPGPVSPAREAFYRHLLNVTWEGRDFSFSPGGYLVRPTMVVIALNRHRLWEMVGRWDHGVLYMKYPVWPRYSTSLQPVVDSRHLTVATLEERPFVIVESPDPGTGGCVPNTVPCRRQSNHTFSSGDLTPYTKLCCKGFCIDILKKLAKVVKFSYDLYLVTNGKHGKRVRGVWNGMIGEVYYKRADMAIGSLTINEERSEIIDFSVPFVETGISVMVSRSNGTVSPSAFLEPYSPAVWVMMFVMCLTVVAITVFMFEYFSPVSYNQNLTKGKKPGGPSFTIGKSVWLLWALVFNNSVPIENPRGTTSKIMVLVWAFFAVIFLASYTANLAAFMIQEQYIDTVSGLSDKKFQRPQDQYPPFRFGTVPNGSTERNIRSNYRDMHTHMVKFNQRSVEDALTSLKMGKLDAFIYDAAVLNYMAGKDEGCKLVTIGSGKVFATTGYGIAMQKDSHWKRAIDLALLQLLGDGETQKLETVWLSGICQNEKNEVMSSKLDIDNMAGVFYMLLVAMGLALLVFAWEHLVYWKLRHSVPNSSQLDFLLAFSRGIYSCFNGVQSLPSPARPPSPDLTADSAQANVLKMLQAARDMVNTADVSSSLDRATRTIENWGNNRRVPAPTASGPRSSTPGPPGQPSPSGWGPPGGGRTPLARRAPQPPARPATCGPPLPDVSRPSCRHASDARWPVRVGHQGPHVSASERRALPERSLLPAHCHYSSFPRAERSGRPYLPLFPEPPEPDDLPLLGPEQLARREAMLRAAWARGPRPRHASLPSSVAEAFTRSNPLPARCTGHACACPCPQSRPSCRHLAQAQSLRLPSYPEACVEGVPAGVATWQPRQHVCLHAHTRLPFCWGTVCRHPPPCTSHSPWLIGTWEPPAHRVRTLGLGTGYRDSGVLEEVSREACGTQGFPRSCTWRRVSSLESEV
Test: Two electrode voltage clamp, Xenopus oocytes expressing recombinant NR1/NR2C
Format: cell-based
Conditions: at 100 μM; read-out: 2C percent effect at the maximum tested concentration
Parameter measured: remaining activity at 100 µM

> print(dat)
                               entry.smiles            parameter.measured  measured
1  CCN(CC)C(=O)Oc1cccc(C(=O)Nc2cccc3ccccc23)c1  remaining activity at 100 µM       93%
2  Cn1c(=O)oc2ccc(C(=O)Nc3cccc4ccccc34)cc21  remaining activity at 100 µM       80%
3    O=C(O)c1ccc(C(=O)Nc2cccc3cc[nH]c23)cc1  remaining activity at 100 µM       98%
4  CCN(CC)C(=O)c1ccc(C(=O)Nc2cccc3cc[nH]c23)cc1  remaining activity at 100 µM       93%
5  CCN(CC)C(=O)Oc1ccccc1C(=O)Nc1cccc2ccccc12  remaining activity at 100 µM       83%

* * *

Molecular target: GluR1 (Rattus norvegicus)
Sequence (P19490 19-907): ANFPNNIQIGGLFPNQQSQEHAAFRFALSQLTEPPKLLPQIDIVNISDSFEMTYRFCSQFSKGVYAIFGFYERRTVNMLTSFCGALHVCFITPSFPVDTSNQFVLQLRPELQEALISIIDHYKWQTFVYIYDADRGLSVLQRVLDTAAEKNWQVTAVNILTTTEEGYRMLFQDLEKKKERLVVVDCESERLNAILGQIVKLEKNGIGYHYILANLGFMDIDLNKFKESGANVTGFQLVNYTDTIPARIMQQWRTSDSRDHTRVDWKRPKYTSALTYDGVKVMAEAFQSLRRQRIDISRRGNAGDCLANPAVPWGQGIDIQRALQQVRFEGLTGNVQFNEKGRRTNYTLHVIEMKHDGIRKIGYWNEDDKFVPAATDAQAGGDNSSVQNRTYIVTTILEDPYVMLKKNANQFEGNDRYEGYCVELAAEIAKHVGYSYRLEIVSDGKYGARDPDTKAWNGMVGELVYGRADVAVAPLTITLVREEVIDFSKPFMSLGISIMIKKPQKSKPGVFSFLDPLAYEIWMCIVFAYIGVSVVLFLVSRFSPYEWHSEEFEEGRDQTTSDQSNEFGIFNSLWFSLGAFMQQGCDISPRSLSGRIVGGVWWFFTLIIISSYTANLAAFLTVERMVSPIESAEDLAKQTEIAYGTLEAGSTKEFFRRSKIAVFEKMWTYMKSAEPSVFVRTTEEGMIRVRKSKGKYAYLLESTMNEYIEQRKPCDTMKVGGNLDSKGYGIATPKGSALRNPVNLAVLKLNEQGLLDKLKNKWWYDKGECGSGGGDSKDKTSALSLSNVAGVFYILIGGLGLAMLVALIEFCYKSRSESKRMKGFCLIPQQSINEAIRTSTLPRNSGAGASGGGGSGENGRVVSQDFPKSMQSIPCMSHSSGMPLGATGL
Experiment: Two electrode voltage clamp, Xenopus oocytes expressing GluR1
Conditions: logistic fit, minimum forced to 0
Parameter measured: IC50 (µM)

> print(dat)
                                   molecule  measured
1  Cc1ccc2[nH]c(=O)c(C3=NN(C(=O)CCC(=O)O)C(c4ccc(Br)cc4)C3)c(-c3ccccc3)c2c1 (stereo not shown)       109

* * *

Molecular target: NR1/NR2D (Rattus norvegicus, UniProt Q62645)
Sequence (Q62645 28-1323, other chains not shown): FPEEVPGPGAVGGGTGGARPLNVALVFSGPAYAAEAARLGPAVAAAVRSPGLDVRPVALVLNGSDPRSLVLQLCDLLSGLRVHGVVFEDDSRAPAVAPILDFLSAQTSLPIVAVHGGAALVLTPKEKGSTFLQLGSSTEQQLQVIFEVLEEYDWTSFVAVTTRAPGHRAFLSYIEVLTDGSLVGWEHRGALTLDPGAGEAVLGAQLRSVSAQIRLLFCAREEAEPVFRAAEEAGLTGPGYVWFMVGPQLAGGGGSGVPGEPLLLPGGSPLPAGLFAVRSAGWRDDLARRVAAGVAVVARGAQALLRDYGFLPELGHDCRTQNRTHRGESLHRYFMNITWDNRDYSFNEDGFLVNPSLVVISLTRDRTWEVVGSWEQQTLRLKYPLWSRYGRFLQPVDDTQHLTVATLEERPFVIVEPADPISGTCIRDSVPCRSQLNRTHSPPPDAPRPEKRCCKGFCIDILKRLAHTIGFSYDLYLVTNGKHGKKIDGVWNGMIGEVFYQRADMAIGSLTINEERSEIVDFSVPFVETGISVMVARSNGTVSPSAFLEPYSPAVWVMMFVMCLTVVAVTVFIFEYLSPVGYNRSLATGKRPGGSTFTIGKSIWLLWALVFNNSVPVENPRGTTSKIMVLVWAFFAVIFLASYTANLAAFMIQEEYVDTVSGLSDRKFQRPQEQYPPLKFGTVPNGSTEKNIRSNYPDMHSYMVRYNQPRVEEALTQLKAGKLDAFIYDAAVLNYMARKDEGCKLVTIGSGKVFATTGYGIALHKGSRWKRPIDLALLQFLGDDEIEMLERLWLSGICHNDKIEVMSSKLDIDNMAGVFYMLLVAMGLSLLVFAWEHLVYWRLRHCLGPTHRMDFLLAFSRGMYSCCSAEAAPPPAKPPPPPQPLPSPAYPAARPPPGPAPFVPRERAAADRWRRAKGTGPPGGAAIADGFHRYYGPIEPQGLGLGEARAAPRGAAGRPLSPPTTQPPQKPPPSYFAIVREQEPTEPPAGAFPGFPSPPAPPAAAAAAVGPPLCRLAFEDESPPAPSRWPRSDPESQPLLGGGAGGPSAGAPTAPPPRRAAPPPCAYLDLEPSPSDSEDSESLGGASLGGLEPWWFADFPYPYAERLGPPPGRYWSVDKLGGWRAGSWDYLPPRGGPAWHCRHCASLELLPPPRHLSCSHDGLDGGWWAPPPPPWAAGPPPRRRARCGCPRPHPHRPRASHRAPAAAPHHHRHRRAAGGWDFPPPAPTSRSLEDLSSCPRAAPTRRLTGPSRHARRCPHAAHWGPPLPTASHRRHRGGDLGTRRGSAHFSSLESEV
Test: Two electrode voltage clamp, Xenopus oocytes expressing recombinant NR1/NR2D
Conditions: logistic fit, minimum forced to 0; read-out: 2D IC50
pIC50: −log10 of the molar value.
Parameter measured: pIC50

> print(dat)
                                   molecule                        measurement.target  measured
1  Cc1ccc2[nH]c(=O)c(C3=NN(C(=O)CCC(=O)O)C(c4ccc(Br)cc4)C3)c(-c3ccccc3)c2c1 (stereo not shown)  NR1/NR2D (Rattus norvegicus, UniProt Q62645)      5.52

* * *

Biological target: NR1/NR2D (Rattus norvegicus, UniProt P35439+Q62645)
Assay: Two electrode voltage clamp, Xenopus oocytes expressing recombinant NR1/NR2D
Assay type: cell-based
Conditions: logistic fit, minimum forced to 0; read-out: 2D IC50
Parameter measured: IC50 (µM)

> print(dat)
                                   compound  unit.spec  result.modifier  measured
1  Cc1ccc2[nH]c(=O)c(C3=NN(C(=O)CCC(=O)O)C(c4ccc(Br)cc4)C3)c(-c3ccccc3)c2c1 (stereo not shown)         µM                =         3
2  Cc1nc2ccc(Br)cc2c(-c2ccccc2)c1C1=NN(C(=O)CCC(=O)O)C(c2ccc(Br)cc2)C1 (stereo not shown)         µM                =        27
3  CCN(CC)C(=S)Oc1ccc(C(=O)Nc2ccc3ccccc3c2)cc1         µM                =        91
4  O=C(Nc1cccc2ccccc12)c1ccc(OC(=S)N2CCOCC2)cc1         µM                >      1000

* * *

Target: NR1/NR2C (Rattus norvegicus, UniProt P35439+Q00961)
Test: Two electrode voltage clamp, Xenopus oocytes expressing recombinant NR1/NR2C
Assay type: cell-based
Details: logistic fit, minimum forced to 0; read-out: 2C IC50
Friendly reminder: IC50 below 30 µM is label 1, at or above is label 0.

> print(dat)
                                    compound                        measurement.target  assigned.label
 1  O=C(O)CCC(=O)N1N=C(c2c(-c3ccccc3)c3cc(Cl)ccc3[nH]c2=O)CC1c1cccc(Br)c1 (stereo not shown)  NR1/NR2C (Rattus norvegicus, UniProt P35439+Q00961)         label 1
 2  Cc1nc2ccc(Br)cc2c(-c2ccccc2)c1C1=NN(C(=O)CCC(=O)O)C(c2ccc(Br)cc2)C1 (stereo not shown)  NR1/NR2C (Rattus norvegicus, UniProt P35439+Q00961)         label 0
 3  CCN(CC)C(=O)Nc1ccc(C(=O)Nc2cccc3ccccc23)cc1  NR1/NR2C (Rattus norvegicus, UniProt P35439+Q00961)         label 0
 4  CCN(CC)C(=S)Oc1ccc(C(=O)Nc2ccc(F)cc2)cc1  NR1/NR2C (Rattus norvegicus, UniProt P35439+Q00961)         label 0
 5  O=C(O)CCC(=O)N1N=C(c2c(-c3ccccc3)c3cc(Cl)ccc3[nH]c2=O)CC1c1ccc(Br)cc1 (stereo not shown)  NR1/NR2C (Rattus norvegicus, UniProt P35439+Q00961)         label 1
 6  CCN(CC)C(=S)Oc1ccc(C(=O)Nc2ccc(Cl)c3ccccc23)cc1  NR1/NR2C (Rattus norvegicus, UniProt P35439+Q00961)         label 1
 7  O=C(Nc1cccc2ccccc12)c1ccc(OC(=O)N2CCCC2)cc1  NR1/NR2C (Rattus norvegicus, UniProt P35439+Q00961)         label 0
 8  CCN(CC)C(=S)Oc1ccc(C(=O)Nc2cccc3cc[nH]c23)cc1  NR1/NR2C (Rattus norvegicus, UniProt P35439+Q00961)         label 1
 9  CCN(CC)C(=S)Oc1ccc(C(=O)Nc2ccc3ccccc3c2)cc1  NR1/NR2C (Rattus norvegicus, UniProt P35439+Q00961)         label 0
10  O=C(Nc1cccc2ccccc12)c1ccc2oc(=O)[nH]c2c1  NR1/NR2C (Rattus norvegicus, UniProt P35439+Q00961)         label 0
11  O=C(O)CCC(=O)N1N=C(c2c(-c3ccccc3)c3cc(Br)ccc3[nH]c2=O)CC1c1ccc(F)cc1 (stereo not shown)  NR1/NR2C (Rattus norvegicus, UniProt P35439+Q00961)         label 0
12  Cc1ccc(C2CC(c3c(-c4ccccc4)c4cc(Br)ccc4[nH]c3=O)=NN2C(=O)CCC(=O)O)cc1 (stereo not shown)  NR1/NR2C (Rattus norvegicus, UniProt P35439+Q00961)         label 1
13  O=C(O)CCC(=O)N1N=C(c2c(-c3ccccc3)c3cc(Br)ccc3[nH]c2=O)CC1c1ccc(Br)cc1 (stereo not shown)  NR1/NR2C (Rattus norvegicus, UniProt P35439+Q00961)         label 1
14  Cc1ccc2[nH]c(=O)c(C3=NN(C(=O)CCC(=O)O)C(c4ccc(Br)cc4)C3)c(-c3ccccc3)c2c1 (stereo not shown)  NR1/NR2C (Rattus norvegicus, UniProt P35439+Q00961)         label 1
15  O=C(O)CCC(=O)N1N=C(c2c(-c3ccccc3)c3cc(Br)ccc3[nH]c2=O)CC1c1ccccc1Cl (stereo not shown)  NR1/NR2C (Rattus norvegicus, UniProt P35439+Q00961)         label 1
16  CCN(CC)C(=S)Oc1ccc(C(=O)Nc2cccc3ccccc23)cc1  NR1/NR2C (Rattus norvegicus, UniProt P35439+Q00961)         label 1
